Test system: 786-0
ASSAY PROCEDURE: NCI tumour cell line growth inhibition, 48 h
Activity calls are given as the source filed them. No stated cut-off is given here; in the data, active = GI50 up to about 1.1 µM and inactive = higher.
MEASURE: GI50

>  <COMPOUND>
C[C@@H]1C[C@H]2[C@@H]3CCC4=CC(=O)C=C[C@]4(C)[C@@]3(Cl)[C@@H](Cl)C[C@]2(C)[C@@]1(O)C(=O)COP(=O)(O)O

>  <GI50>
49.3 µM (inactive)

$$$$
>  <COMPOUND>
C/C(=C\CCC1=CC(=O)OC1)CC[C@@H]1[C@H]2C(=O)CC(C)[C@@]3(C)CC[C@]1(C)[C@@]23C (stereo not given in full)

>  <GI50>
> 10 µM (inactive)

$$$$
>  <COMPOUND>
Cc1cc(-c2nc3ccc(F)cc3s2)ccc1N

>  <GI50>
> 100 µM (inactive)

$$$$
>  <COMPOUND>
CCN(CC)C(=S)SS(=O)(=O)c1ccc(F)cc1

>  <GI50>
73.3 µM (inactive)

$$$$
>  <COMPOUND>
COc1cc2c(cc1OC)C1CCc3ccccc3CN1CC2 (stereo not given)

>  <GI50>
> 100 µM (inactive)

$$$$
>  <COMPOUND>
O=C1/C(=N/O)Cc2c(Br)ccc(Br)c21

>  <GI50>
74 µM (inactive)

$$$$
>  <COMPOUND>
COc1cc(OC)c(/C=C\c2ccnc3ccccc23)c(OC)c1

>  <GI50>
5.53 µM (inactive)

$$$$
>  <COMPOUND>
Cc1c(-c2cc(-c3ccccc3)n[nH]c2=O)c2ccccc2n1C

>  <GI50>
> 100 µM (inactive)

$$$$
>  <COMPOUND>
CCOC(=O)c1c2ccc(/C=C/c3ccccc3)ccc-2c(C(=O)OCC)c1N

>  <GI50>
> 100 µM (inactive)

$$$$

Would you kindly look at the next entry?
Request: Which value of GI50 has been reported for CCc1cccc(C(C)C)c1NC(=O)C(=O)CC(=O)c1c(C)[n+]([O-])c2ccccc2[n+]1[O-] in the records?
Response: > 100 µM (inactive)
